Each recorded value in this set is attributed to patent US20210070872A1.

In this section, each of the binders is paired with its reported kon.
target_desc: T1, biotinylated GITR (human, UniProt Q9Y5U5 26-161, limits assumed, biotinylated (sites not given))
T1 construct: also called GITR-bio; Biotin-GITR
T1 sequence: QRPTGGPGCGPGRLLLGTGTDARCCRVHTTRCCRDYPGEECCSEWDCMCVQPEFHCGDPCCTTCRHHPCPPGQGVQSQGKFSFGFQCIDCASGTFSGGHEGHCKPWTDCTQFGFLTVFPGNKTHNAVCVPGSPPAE
measurement_description: BLI (Octet), biotin-GITR on streptavidin tips, antibody supernatant
Field: numeric (M⁻¹ s⁻¹). Do not append units.

binder: germline variant antibody 42 (H1916E01 / K1916E01) (antibody, V domains shown, IGHG1/IGKC expression vectors; measured from CHO culture supernatant; also called Antibody ID 42) VH: QVQLVQSGTEVKKPGASVKVSCKASGYTFTDYAMYWVRQAPGQGLEWIGVIRTFSGDLTYNQKFQDRVTMTVDTSISTAYMELSRLRSDDTAVYYCAKSGTVRGFAYWGQGTLVTVSS VL: DIVMTQSPDSLAVSLGERATINCKSSQSLLNSGNQKNYLSWYQQKPGQPPKLLIYWASTRESGVPDRFSGSGSGTDFTLTISSLQAEDVAVYYCQNDYSYPYTFGQGTKLEIK
kon / M⁻¹ s⁻¹: 417000

Shifting focus to the binder that follows.
# kon lookup, item germline variant antibody 59 (H1916G05 / K1916G05) (antibody, V domains shown, IGHG1/IGKC expression vectors; measured from CHO culture supernatant; also called Antibody ID 59) VH: QVQLVQSGAEVKKPGASVKVSCKASGYTFTEYAMYWVRQAPGQGLEWMGLIRTYSGGVSYNQKFRDRVTMTVDKSISTAYMELSRLRSDDTAVYYCAKSGTVRGFAYWGQGTLVTVSS VL: DIVMTQSPDSLAVSLGERATINCKSSQSLLNSSNQKNYLSWYHQKPGQPPKLLIYWASTRESGVPDRFSGSGSGTDFTLTISSVQAEDVAVYHCQNDYSYPYTFGQGTKLEIK
299000
